- assay-notes: Single dose 300 mg / 450 mg pharmacokinetic, safety and tolerability study in healthy male and female subjects
- applied-conditions: female, human, plasma, po, 450 mg
measured-property: concentration at 8 h (ng/mL)
Give bare numbers, in ng/mL.

Exercise: # concentration at 8 h lookup, item O=C1NCC2(c3ccc(Cl)c(Cl)c3)CC12 (stereo not shown)
Key: 2990

---

- assay-notes: 2-week dog toxicity and toxicokinetic study
- Format: in vivo
- applied-conditions: female, beagle, in vivo, po, 10 mg/kg/day, females, 10 mg/kg/day, Day 13
measured-property: Tmax
Report field: quantity (unit follows the number).

Exercise: Need Tmax of Clc1ccc([C@]23CNC[C@H]2C3)cc1Cl [amitifadine] , thanks.
Key: 2 h

---

- assay-notes: 26-week rat toxicity and toxicokinetic study
- Type: in vivo
- applied-conditions: female, Crl:CD(SD)IGS BR, rat, in vivo, po, 25 mg/kg/day, females, 25 mg/kg/day, Day 0
measured-property: Cmax (ng/mL)
Answers are plain numbers, in ng/mL.

Exercise: Name the reported Cmax value associated with the compound Clc1ccc([C@]23CNC[C@H]2C3)cc1Cl
Key: 2630

---

- assay-notes: Single-dose (25 mg) food effect crossover study in 24 men (DOV 947-003)
- Assay type: in vivo, human
- applied-conditions: male, human, in vivo, po, single oral dose 25 mg, Fed, 24 healthy male subjects
measured-property: Tmax (h)
Answers are plain numbers, in h.

Exercise: Look up Tmax: Clc1ccc([C@]23CNC[C@H]2C3)cc1Cl
Key: 2.57

---

- assay-notes: in vivo
- applied-conditions: male, Crl:CD-1(ICR) BR, mouse, po, 30 mg/kg/day, AUC0-24
measured-property: AUC(0-t) (ng·h/mL)
One number for each entry, in ng·h/mL.

Exercise: Look at this compound and give its reported AUC(0-t). Clc1ccc([C@]23CNC[C@H]2C3)cc1Cl
Key: 12800

---

- assay-notes: Single rising oral dose (10-150 mg IR) safety, tolerance and pharmacokinetics in healthy male volunteers
- Format: in vivo, human
- applied-conditions: male, human, plasma, oral, 50 mg, Median; read-out: MRT0-∞
measured-property: MRT inf (h)
Answers are plain numbers, in h.

Exercise: Report MRT inf for Clc1ccc([C@]23CNC[C@H]2C3)cc1Cl [amitifadine] please.
Key: 5.29

---

- assay-notes: Rabbit developmental toxicity study with toxicokinetics
- applied-conditions: female, New Zealand white, in vivo, po, oral gavage GD 7-20, read-out: NOAEL for developmental toxicity
measured-property: NOAEL (mg/kg/day)
One number for each entry, in mg/kg/day.

Exercise: Any idea what its NOAEL is? The molecule is Clc1ccc([C@]23CNC[C@H]2C3)cc1Cl
Key: 20

---

- assay-notes: 12-month dog toxicity and toxicokinetic study
- Type: in vivo
- applied-conditions: male, beagle, dog, plasma, po, 2 mg/kg/day, males, 2 mg/kg/day, Day 358; read-out: AUC0-24
measured-property: AUC(0-t) (ng·h/mL)
Numbers only, in ng·h/mL.

Exercise: Fill in: AUC(0-t) of Clc1ccc([C@]23CNC[C@H]2C3)cc1Cl [amitifadine] is ___
Key: 2220

---

- assay-notes: Single dose 300 mg / 450 mg pharmacokinetic, safety and tolerability study in healthy male and female subjects
- applied-conditions: female, human, plasma, po, 450 mg
measured-property: AUC(0-t)

[
  {
    "compound": "Clc1ccc([C@]23CNC[C@H]2C3)cc1Cl [amitifadine]",
    "AUC(0-t)": "29500 ng·h/mL"
  }
]

Now for the compound whose AUC(0-t) we want.
Exercise: Need AUC(0-t) of O=C1NCC2(c3ccc(Cl)c(Cl)c3)CC12 (centres unmarked) [EB-10101] , thanks.
Key: 55300 ng·h/mL
